- target: Matrix metalloproteinase-9 (Homo sapiens, UniProt P14780)
- Sequence (P14780 whole entry): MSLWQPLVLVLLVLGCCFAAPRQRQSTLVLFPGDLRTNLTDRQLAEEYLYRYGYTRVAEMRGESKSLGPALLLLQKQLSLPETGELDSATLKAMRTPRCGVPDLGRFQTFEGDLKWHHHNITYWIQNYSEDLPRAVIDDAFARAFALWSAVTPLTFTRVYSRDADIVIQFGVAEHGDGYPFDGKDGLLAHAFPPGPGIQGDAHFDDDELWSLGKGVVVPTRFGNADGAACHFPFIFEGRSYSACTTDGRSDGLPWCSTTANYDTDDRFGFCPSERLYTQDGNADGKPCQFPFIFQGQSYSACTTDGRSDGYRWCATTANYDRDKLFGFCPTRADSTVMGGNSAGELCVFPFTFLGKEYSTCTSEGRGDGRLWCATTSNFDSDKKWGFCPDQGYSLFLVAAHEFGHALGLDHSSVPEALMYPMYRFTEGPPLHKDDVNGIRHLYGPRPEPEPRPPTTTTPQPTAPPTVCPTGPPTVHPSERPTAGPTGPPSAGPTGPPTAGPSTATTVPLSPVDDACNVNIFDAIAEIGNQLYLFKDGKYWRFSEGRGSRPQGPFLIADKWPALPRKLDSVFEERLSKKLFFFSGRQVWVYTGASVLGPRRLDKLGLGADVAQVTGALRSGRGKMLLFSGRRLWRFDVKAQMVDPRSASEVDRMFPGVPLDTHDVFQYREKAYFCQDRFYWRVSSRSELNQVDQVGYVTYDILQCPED
measured-quantity: log10 of IC50 (log10 of the value in nM)

* Cc1ccc(Oc2ccc(N(C[C@H](NCc3ccncc3)C(=O)NO)S(C)(=O)=O)cc2)cc1 | 0.26
* Cc1ccc(Oc2ccc(N(C[C@H](Nc3cccc(F)c3)C(=O)NO)S(C)(=O)=O)cc2)cc1 | -0.05
* CS(=O)(=O)N(C[C@H](O)C(=O)NO)c1ccc(Oc2ccc(C(F)(F)F)cc2)cc1 | 1.15
* C[C@@H]1CN([C@@H](CN(c2ccc(Oc3ccc(C(F)(F)F)cc3)cc2)S(C)(=O)=O)C(=O)NO)C[C@H](C)O1 | 0.04
* Cc1ccc(Oc2ccc(N(C[C@@H](NC(C)C)C(=O)NO)S(C)(=O)=O)cc2)cc1 | 1.49

* * *

- target: 72 kDa type IV collagenase (Homo sapiens, UniProt P08253)
- Sequence (P08253 whole entry): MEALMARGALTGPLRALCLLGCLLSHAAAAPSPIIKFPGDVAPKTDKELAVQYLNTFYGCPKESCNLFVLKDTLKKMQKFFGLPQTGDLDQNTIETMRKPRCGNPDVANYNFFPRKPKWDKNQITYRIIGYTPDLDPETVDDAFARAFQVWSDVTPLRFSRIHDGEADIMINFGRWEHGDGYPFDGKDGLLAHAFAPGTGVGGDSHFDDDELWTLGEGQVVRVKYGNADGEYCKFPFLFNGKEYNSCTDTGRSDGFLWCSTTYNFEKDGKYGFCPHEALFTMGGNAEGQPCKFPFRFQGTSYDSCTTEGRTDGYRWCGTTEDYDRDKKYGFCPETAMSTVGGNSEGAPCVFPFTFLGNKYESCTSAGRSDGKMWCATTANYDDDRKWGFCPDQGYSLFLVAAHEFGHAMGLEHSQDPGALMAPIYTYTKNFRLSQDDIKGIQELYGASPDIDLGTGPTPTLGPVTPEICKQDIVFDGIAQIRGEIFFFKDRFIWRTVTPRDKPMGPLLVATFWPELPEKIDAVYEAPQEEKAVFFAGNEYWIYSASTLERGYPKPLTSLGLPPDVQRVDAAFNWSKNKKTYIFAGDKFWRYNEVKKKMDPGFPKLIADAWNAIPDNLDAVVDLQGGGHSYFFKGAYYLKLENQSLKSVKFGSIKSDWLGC
pKi: −log10 of the molar value.
measured-quantity: pKi

- O=C1NC(=O)C2(CCC(=O)N2c2ccc(Oc3ccc(Cl)cc3)cc2)C(=O)N1: 9.40

* * *

- target: Matrix metalloproteinase-9 (Homo sapiens, UniProt P14780)
pIC50: −log10 of the molar value.
So basically: pIC50 at 9 or higher? That is yes (1). Lower than 9? That is no (0).

* CNC(=O)C1CCN([C@@H](CN(c2ccc(Oc3ccc(C(F)(F)F)cc3)cc2)S(C)(=O)=O)C(=O)NO)CC1 | no (0)
* CS(=O)(=O)N(C[C@H](O)C(=O)NO)c1ccc(Oc2ccc(Cl)cc2)cc1 | no (0)
* C[C@@H]1CN([C@@H](CN(c2ccc(Oc3ccc(Cl)cc3)cc2)S(C)(=O)=O)C(=O)NO)C[C@H](C)O1 | yes (1)
* CS(=O)(=O)N(C[C@@H](C(=O)NO)N1CCC(O)CC1)c1ccc(Oc2ccc(C(F)(F)F)cc2)cc1 | no (0)
* Cc1ccc(Oc2ccc(N(C[C@H](Nc3ccccc3)C(=O)NO)S(C)(=O)=O)cc2)cc1 | yes (1)
* CS(=O)(=O)N(C[C@@H](C(=O)NO)N1CCCCC1)c1ccc(Oc2ccc(C(F)(F)F)cc2)cc1 | no (0)
* Cc1ccc(Oc2ccc(N(C[C@H](NC(=O)C(C)C)C(=O)NO)S(C)(=O)=O)cc2)cc1 | no (0)
* Cc1ccc(Oc2ccc(N(C[C@@H](C(=O)NO)N3CCOCC3)S(C)(=O)=O)cc2)cc1 | no (0)

* * *

Attribute: Ratio IC50
- assay-method-text: Selectivity for MMP9 over MMP2
measured-quantity: Ratio IC50

* CC(C)N[C@@H](CN(c1ccc(Oc2ccc(C(F)(F)F)cc2)cc1)S(C)(=O)=O)C(=O)NO | 3.8
* Cc1ccc(Oc2ccc(N(C[C@H](N[C@H](C)c3ccccc3)C(=O)NO)S(C)(=O)=O)cc2)cc1 | 16
* Cc1ccc(Oc2ccc(N(C[C@H](N[C@@H](C)c3ccccc3)C(=O)NO)S(C)(=O)=O)cc2)cc1 | 22.2
* Cc1ccc(Oc2ccc(N(C[C@H](Nc3cccc(F)c3)C(=O)NO)S(C)(=O)=O)cc2)cc1 | 59.6
* Cc1ccc(Oc2ccc(N(C[C@@H](C(=O)NO)N3C[C@@H](C)O[C@@H](C)C3)S(C)(=O)=O)cc2)cc1 | 4.1
* Cc1ccc(Oc2ccc(N(C[C@H](N)C(=O)NO)S(C)(=O)=O)cc2)cc1 | 5.5
* CS(=O)(=O)N1CCN([C@@H](CN(c2ccc(Oc3ccc(C(F)(F)F)cc3)cc2)S(C)(=O)=O)C(=O)NO)CC1 | 3.1
* Cc1ccc(Oc2ccc(N(C[C@H](Nc3cccc(Cl)c3)C(=O)NO)S(C)(=O)=O)cc2)cc1 | 16.6
* Cc1ccc(Oc2ccc(N(C[C@H](NC(=O)C(C)C)C(=O)NO)S(C)(=O)=O)cc2)cc1 | 13
* Cc1ccc(Oc2ccc(N(C[C@H](NCC(C)C)C(=O)NO)S(C)(=O)=O)cc2)cc1 | 8.8
* CC(C)N(Cc1ccccc1)[C@@H](CN(c1ccc(Oc2ccc(C(F)(F)F)cc2)cc1)S(C)(=O)=O)C(=O)NO | 4.1
* CS(=O)(=O)N(C[C@@H](C(=O)NO)N1CCCCC1)c1ccc(Oc2ccc(C(F)(F)F)cc2)cc1 | 3.3
* CNC(=O)C1CCN([C@@H](CN(c2ccc(Oc3ccc(C(F)(F)F)cc3)cc2)S(C)(=O)=O)C(=O)NO)CC1 | 2.2
* CS(=O)(=O)N(C[C@H](O)C(=O)NO)c1ccc(Oc2ccc(C(F)(F)F)cc2)cc1 | 9.9
* CS(=O)(=O)N(C[C@@H](C(=O)NO)N1CCC(c2ccccc2)CC1)c1ccc(Oc2ccc(C(F)(F)F)cc2)cc1 | 2.7
* Cc1ccc(Oc2ccc(N(C[C@H](Nc3ccc4ccccc4c3)C(=O)NO)S(C)(=O)=O)cc2)cc1 | 16.6
* Cc1ccc(Oc2ccc(N(C[C@@H](C(=O)NO)N3CCOCC3)S(C)(=O)=O)cc2)cc1 | 2.7

* * *

- assay-method-text: Volume of distribution at steady state in rat at 0.5 mg/kg, iv
- Assay type: ADME, organism-based
- Set-up: dose 0.5 mg/kg, route intravenous
- condition-notes: in vivo, read-out: Vdss
measured-quantity: Vd (L/kg)

- Cc1ccc(Oc2ccc(N(C[C@@H](C(=O)NO)N3CCOCC3)S(C)(=O)=O)cc2)cc1: 0.66
- CS(=O)(=O)N(C[C@@H](C(=O)NO)N1CCOCC1)c1ccc(Oc2ccc(C(F)(F)F)cc2)cc1: 0.99
- Cc1ccc(Oc2ccc(N(C[C@H](NC(C)C)C(=O)NO)S(C)(=O)=O)cc2)cc1: 0.49
- Cc1ccc(Oc2ccc(N(C[C@H](Nc3cccc(F)c3)C(=O)NO)S(C)(=O)=O)cc2)cc1: 2.89

* * *

The following compounds have recorded pIC50 on 72 kDa type IV collagenase (Homo sapiens, UniProt P08253).
pIC50: −log10 of the molar value.
measured-quantity: pIC50

* CS(=O)(=O)N(C[C@H](O)C(=O)NO)c1ccc(Oc2ccc(C(F)(F)F)cc2)cc1 | 6.86
* CS(=O)(=O)N(C[C@H](O)C(=O)NO)c1ccc(Oc2ccc(Cl)cc2)cc1 | 7.46
* CNC(=O)C1CCN([C@@H](CN(c2ccc(Oc3ccc(C(F)(F)F)cc3)cc2)S(C)(=O)=O)C(=O)NO)CC1 | 8.26
* CS(=O)(=O)N1CCN([C@@H](CN(c2ccc(Oc3ccc(C(F)(F)F)cc3)cc2)S(C)(=O)=O)C(=O)NO)CC1 | 8.00
* C[C@@H]1CN([C@@H](CN(c2ccc(Oc3ccc(Cl)cc3)cc2)S(C)(=O)=O)C(=O)NO)C[C@H](C)O1 | 8.60
* Cc1ccc(Oc2ccc(N(C[C@H](N[C@@H](C)c3ccccc3)C(=O)NO)S(C)(=O)=O)cc2)cc1 | 7.92
* C[C@@H]1CN([C@@H](CN(c2ccc(Oc3ccc(C(F)(F)F)cc3)cc2)S(C)(=O)=O)C(=O)NO)C[C@H](C)O1 | 8.25

* * *

- assay-method-text: Cmax in rat at 0.5 mg/kg, iv
- Assay type: ADME, organism-based
- Set-up: dose 0.5 mg/kg, route intravenous
- condition-notes: in vivo
measured-quantity: Cmax (nM)

• CS(=O)(=O)N(C[C@@H](C(=O)NO)N1CCOCC1)c1ccc(Oc2ccc(C(F)(F)F)cc2)cc1 = 860
• Cc1ccc(Oc2ccc(N(C[C@H](Nc3cccc(F)c3)C(=O)NO)S(C)(=O)=O)cc2)cc1 = 620
• Cc1ccc(Oc2ccc(N(C[C@H](NC(C)C)C(=O)NO)S(C)(=O)=O)cc2)cc1 = 2680
• Cc1ccc(Oc2ccc(N(C[C@@H](C(=O)NO)N3CCOCC3)S(C)(=O)=O)cc2)cc1 = 3700

* * *

- assay-method-text: Protein binding in rat at 0.5 mg/kg, iv
- Type: ADME, organism-based
- Parameters: dose 0.5 mg/kg, route intravenous
- condition-notes: plasma, read-out: PPB (converted)
measured-quantity: fraction unbound

- CS(=O)(=O)N(C[C@@H](C(=O)NO)N1CCOCC1)c1ccc(Oc2ccc(C(F)(F)F)cc2)cc1: 0.26
- Cc1ccc(Oc2ccc(N(C[C@H](Nc3cccc(F)c3)C(=O)NO)S(C)(=O)=O)cc2)cc1: 0.003
- Cc1ccc(Oc2ccc(N(C[C@H](NC(C)C)C(=O)NO)S(C)(=O)=O)cc2)cc1: 0.16
- Cc1ccc(Oc2ccc(N(C[C@@H](C(=O)NO)N3CCOCC3)S(C)(=O)=O)cc2)cc1: 0.42

* * *

Recorded measurements of Ratio IC50, one per entry
- assay-method-text: Selectivity for MMP9 over MMP2
measured-quantity: Ratio IC50

* Cc1ccc(Oc2ccc(N(C[C@H](NC(C)C)C(=O)NO)S(C)(=O)=O)cc2)cc1 | 7.7
* CS(=O)(=O)N(C[C@H](O)C(=O)NO)c1ccc(Oc2ccc(Cl)cc2)cc1 | 7.4
* CC(C)N(C)[C@@H](CN(c1ccc(Oc2ccc(C(F)(F)F)cc2)cc1)S(C)(=O)=O)C(=O)NO | 2.7
* Cc1ccc(Oc2ccc(N(C[C@H](NCc3ccccc3)C(=O)NO)S(C)(=O)=O)cc2)cc1 | 28.4
* CS(=O)(=O)N(C[C@@H](C(=O)NO)N1CCN(c2ccc(Cl)cc2)CC1)c1ccc(Oc2ccc(C(F)(F)F)cc2)cc1 | 2.7
